FYI, the data here is from patent US9340580B2.

- assay method text: solubility pre-screen in an aqueous, acidic milieu; further: test concentration or dose not given here
- Format: physicochemical
Where a SMILES comes first, the peptide text is derived from it.

molecule	Solubility test
CSCC[C@H](NC(=O)[C@H](CCC(N)=O)NC(=O)[C@H](CCCCN)NC(=O)[C@H](CC(C)C)NC(=O)CNC(=O)[C@@H](N)CCCNC(=N)N)C(=O)N[C@@H](CCCCN)C(=O)N[C@@H](CCCNC(=N)N)C(=O)N[C@H](C(=O)NCC(=O)N[C@@H](CC(=O)O)C(=O)N[C@@H](C)C(=O)N[C@@H](CC(N)=O)C(=O)O)C(C)C [HDM35] (H-RGLKQMKRVGDAN-OH; N-terminus and C-terminus assumed)	YES
CSCC[C@H](NC(=O)[C@@H]1CCCN1C(=O)[C@H](CC(=O)O)NC(=O)[C@H](Cc1ccccc1)NC(=O)[C@@H](NC(=O)[C@@H](N)CCC(=O)O)[C@@H](C)O)C(=O)N[C@@H](CCCCN)C(=O)N[C@H](C(=O)N1CCC[C@H]1C(=O)N[C@@H](CC(=O)O)C(=O)N[C@@H](Cc1c[nH]cn1)C(=O)N[C@@H](CO)C(=O)N[C@@H](CC(=O)O)C(=O)O)C(C)C [HDM29] (H-ETFDPMKVPDHSD-OH)	YES
CC[C@H](C)[C@H](NC(=O)[C@H](CCC(=O)O)NC(=O)[C@@H](NC(=O)[C@H](CCCCN)NC(=O)[C@H](C)N)[C@@H](C)CC)C(=O)N[C@@H](CCCCN)C(=O)N[C@@H](C)C(=O)N[C@@H](CO)C(=O)N[C@@H](CC(C)C)C(=O)N[C@@H](CC(=O)O)C(=O)NCC(=O)N[C@@H](CC(C)C)C(=O)N[C@@H](CCC(=O)O)C(=O)O [HDM27] (H-AKIEIKASLDGLE-OH)	YES
